- assayed-system: T1, rat α-CGRP (Rattus norvegicus, UniProt P01256)
- T1 construct: rat α (1-37); host or cells: synthetic peptide
- T1 sequence (P01256 83-119 limits assumed): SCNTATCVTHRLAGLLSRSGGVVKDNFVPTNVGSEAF
- test-method-notes: Biacore affinity of antibody G1 Fab and variants to rat α-CGRP
- Format: binding
- condition-notes: 37° C., Fab, screening mode unless underlined
Recorded α-rat koff values for a group of molecules are listed next.
# number only, unit s⁻¹ dropped from output

The following molecules have reported results that may help.
molecule	α-rat koff (s⁻¹)
M30: G1 variant: L1 R28N,T30G; H2 E54K,A57E; HC-FW3 L99T,A100V (antibody, V domains shown) VH: EVQLVESGGGLVQPGGSLRLSCAASGFTFSNYWISWVRQAPGKGLEWVAEIRSKSDESATHYAEAVKGRFTISRDNAKNSLYLQMNSLRAEDTAVYYCTVYFDYGLAIQNYWGQGTLVTVSS VL: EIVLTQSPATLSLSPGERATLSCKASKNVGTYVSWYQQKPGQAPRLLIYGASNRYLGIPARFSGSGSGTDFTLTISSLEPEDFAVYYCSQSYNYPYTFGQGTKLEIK	0.00638
M49: G1 variant: L1 R28N; L2 G50A,L56T; H2 E54K,A57N,S58Y,H61F; HC-FW3 L99T,A100V (antibody, V domains shown) VH: EVQLVESGGGLVQPGGSLRLSCAASGFTFSNYWISWVRQAPGKGLEWVAEIRSKSDNYATFYAEAVKGRFTISRDNAKNSLYLQMNSLRAEDTAVYYCTVYFDYGLAIQNYWGQGTLVTVSS VL: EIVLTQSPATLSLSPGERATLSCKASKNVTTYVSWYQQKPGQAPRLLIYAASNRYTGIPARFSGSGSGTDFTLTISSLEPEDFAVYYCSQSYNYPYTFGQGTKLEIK	0.0148
M26: G1 variant: L1 R28N; H2 A57G; HC-FW3 L99T,A100V (antibody, V domains shown) VH: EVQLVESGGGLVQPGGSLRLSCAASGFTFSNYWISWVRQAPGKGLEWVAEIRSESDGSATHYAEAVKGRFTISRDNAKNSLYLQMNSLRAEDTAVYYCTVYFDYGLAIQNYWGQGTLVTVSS VL: EIVLTQSPATLSLSPGERATLSCKASKNVTTYVSWYQQKPGQAPRLLIYGASNRYLGIPARFSGSGSGTDFTLTISSLEPEDFAVYYCSQSYNYPYTFGQGTKLEIK	0.000924

Attention now shifts to the item below.
Task item: Specify reported α-rat koff for the molecule shown: M55: G1 variant: L1 R28N,T30A; L2 L56S; H2 E54K,A57N,S58E,E64D; HC-FW3 L99T,A100V (antibody, V domains shown) VH: EVQLVESGGGLVQPGGSLRLSCAASGFTFSNYWISWVRQAPGKGLEWVAEIRSKSDNEATHYADAVKGRFTISRDNAKNSLYLQMNSLRAEDTAVYYCTVYFDYGLAIQNYWGQGTLVTVSS VL: EIVLTQSPATLSLSPGERATLSCKASKNVATYVSWYQQKPGQAPRLLIYGASNRYSGIPARFSGSGSGTDFTLTISSLEPEDFAVYYCSQSYNYPYTFGQGTKLEIK
Reply: 0.00585
